Values from patent US20190202925A1

Target: T1, monomeric human TNFR2 extracellular domain (human, UniProt P20333 23-257)
T1 construct: extracellular domain; Analyte in the Octet experiments; also called human TNFR2 ECD
T1 sequence (looked up): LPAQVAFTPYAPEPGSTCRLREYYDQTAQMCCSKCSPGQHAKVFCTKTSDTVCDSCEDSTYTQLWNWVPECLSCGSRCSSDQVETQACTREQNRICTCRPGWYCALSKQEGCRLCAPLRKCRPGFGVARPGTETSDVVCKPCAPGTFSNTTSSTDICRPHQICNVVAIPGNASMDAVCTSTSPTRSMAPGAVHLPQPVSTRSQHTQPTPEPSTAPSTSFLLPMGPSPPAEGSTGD
Assay: BLI (Octet Red 96), CHO supernatant antibody on anti-human Fc biosensor, 100 nM monomeric human TNFR2 ECD, 1:1 model
binders and their reported koff
Express it in s⁻¹; write the number only.

Study these solved cases before continuing.
chimeric SBT-002 Fc null (antibody, V domains shown, also called chSBT-002n) VH: QVTLKESGPGILQPSQTLSLTCSFSGFSLSTSGMGVGWIRQPSGKGLEWLAHIWWDDDKFYNPSLKSQLTISKDTSRNQVFLKLTSVVTADTATYYCARLTGTRYFDYWGQGTTLTVSS VL: DVQMTQSPSSLSASLGGKVTITCKASQDINKFIAWYQHKPGKGPRLLIHYTSTLQPGIPSKFSGSGSGRDYSFSISNLEPEDIATYYCLQYGNLWTFGGGTKLEIT : 0.000361
hSBT-002a (antibody, V domains shown, Humanized SBT-002; VH fused to human IgG1 Fc null, VL to human Ck; Tested as CHO supernatant) VH: QVTLKESGPALVKPTQTLTLTCTFSGFSLSTSGMGVGWIRQPPGKALEWLAHIWWDDDKFYNPSLKSRLTISKDTSKNQVVLTMTNMDPVDTATYYCARITGTRYFDYWGQGTTVTVSS VL: DIQMTQSPSSLSASVGDRVTITCKASQDINKFIAWYQQKPGKAPKLLIYYTSTLQPGVPSRFSGSGSGTDFTFTISSLQPEDIATYYCLQYGNLWTFGGGTKVEIK : 0.000722

Proceeding to the next binder to report its koff.
Supply recorded koff for hSBT-002e (antibody, V domains shown, Humanized SBT-002; VH fused to human IgG1 Fc null, VL to human Ck; Tested as CHO supernatant) VH: QVTLKESGPALVKPTQTLTLTCTFSGFSLSTSGMGVGWIRQPPGKALEWLAHIWWDDDKFYNPSLKSRLTISKDTSKNQVVLTMTNMDPVDTATYYCARLTGTRYFDYWGQGTTVTVSS VL: DVQMTQSPSSLSASVGDRVTITCKASQDINKFIAWYQQKPGKAPKLLIHYTSTLQPGIPSRFSGSGSGRDYTFTISSLQPEDIATYYCLQYGNLWTFGGGTKVEIK here.
0.000268
